Tested on: wheat germ agglutinin (Triticum aestivum), Alexa647-labelled
Assay: wheat germ agglutinin binders on compound microarrays, profiling panel, artefact control for SMM control-protein annotation, biochemical, small-molecule microarray, 635/667 nm fluorescence (AID 1140);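 further: score merges 667 nm feature emission with signal to noise over triplicate slides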
Conditions: WGA-A647 binding, 635 nm fluorescence, higher = more signal
Response key: t means composite z-score >= 0.7; f means composite z-score < 0.7.

// inclusive: composite z-score at least 0.7? input: `C=C(CCCC)/C(=C/C[C@@H](OC(=O)c1ccncc1)c1ccccc1OCCO)c1cnc2ccccc2c1` t

Confirm if composite z-score reported for the compound `C=C(/C(=C/C[C@H](OC(C)=O)c1cccc(OCCO)c1)c1cnc2ccccc2c1)C(C)C` is 0.7 or above. t

Does the compound O=C1NC(=O)C2C1C=CC(C(O)c1c(F)cccc1Cl)N2Nc1ccc(Cl)cc1Cl (stereo unspecified) have recorded composite z-score that is 0.7 or more? t

Exam item: decide whether the reported composite z-score for CC(C)C(CO)N1C(=O)[C@@H]2C3C(=O)OCCC/C=C\[C@H]3OC23C=CCN(C(C)(C)C)C(=O)[C@@H]13 (stereo partly specified) is at least 0.7. f

Is it the case that `COCCOC(=O)N1C(=O)[C@@]2(c3cc(C#CC4=CCCCC4)ccc31)[C@H](c1ccccc1OCCO)N1[C@H](c3ccccc3)[C@H](c3ccccc3)OC(=O)[C@H]1[C@@H]2C(=O)Nc1nc2ccccc2s1` has composite z-score reaching or exceeding 0.7? t

Given the entry `C=CC[C@]1(C(=O)O)COC(c2ccc(OCCCO)cc2)=N1` , answer whether its composite z-score meets or surpasses 0.7. f

Hello, I need to know if `COC(=O)c1c(CC[C@@H](CO)NC(=O)N2CCC[C@H]2Cn2cc(Cc3ccccc3)nn2)oc(C(C)=O)c1C(=O)OC` has measured composite z-score not below 0.7. Thanks! f

Determine whether measured composite z-score meets or exceeds 0.7 for `O=C1N(Cc2ccccc2)Cc2ccccc2[C@@H]2OC(c3ccc(OCCCO)cc3)=N[C@]12CCS(=O)(=O)c1ccccc1` t

Could you verify whether the entry `C=C(COC)C(=O)CC[C@@H](OC(=O)c1cccnc1)c1ccc(OCCO)cc1` shows composite z-score of no less than 0.7? f

hey, is composite z-score for this one >= 0.7? Cc1cc(C)c(C(O)C2C=CC3C(=O)NC(=O)C3N2Nc2ccc(Cl)cc2Cl)c(C)c1 (stereo unspecified) t

// inclusive: composite z-score at least 0.7? input: COc1ccc(C(O)C2C=CC3C(=O)N(c4ccccc4)C(=O)C3N2Nc2ccc([N+](=O)[O-])cc2)cc1 (stereo unspecified) t

Please tell me: is the compound O=C1NC(=O)C2C1C=CC(C(O)c1ccco1)N2Nc1ccccn1 (stereo unspecified) at or over 0.7 in terms of composite z-score? f

Does `COC(=O)[C@@]1(Cc2ccccc2)[C@@H]2C(=CC(=O)[C@H]2CC(=O)C(=O)N(C)C)CN1C(=O)c1ccccc1` have a reported composite z-score of at least 0.7? f

Hi, just wondering whether `C=CCN1C(=O)[C@@]2(O[C@@H](CCn3cc([C@H](O)c4ccccc4)nn3)[C@H]([Si](C)(C)c3ccc(OC)cc3)[C@H]2C)c2cc(N3CCC3=O)ccc21` shows composite z-score of 0.7 or higher. f

The measurements presented in this section are drawn from PubChem BioAssay.
